Origin of measurements: ChEMBL document CHEMBL4513216

Provide the reported INHIBITION of each item.
- Test system: Plasmodium berghei
- RUN_DESCRIPTION: Screen against P. berghei liver stage (PbLuc), transformed with Luciferase, at 10uM
- Assay type: functional, HepG2
- EXPERIMENTAL_CONDITIONS: tested at 10 uM
Out of some 69,000 compounds screened, about 8,600 (12%) showed an effect of 50% or more. Only a selection was taken, and strong results are over-represented in it overall.
Give bare numbers, in %.

Looking for the measured INHIBITION of Cc1ccc(CN2CCC3(CC2)CN(c2ccccc2)C(=O)CO3)o1 , can you help?
68.4

Looking for the measured INHIBITION of COCC(=O)Nc1nccn1Cc1ccc(Br)cc1 , can you help?
84.2

Provide the reported INHIBITION of each entry below, same order.
1. Cc1cc(C2CCCN(S(=O)(=O)c3cn(C)cn3)C2)ccn1 (configuration not stated)
2. Cc1cnn(CC2CCCN2C(=O)Cc2c(C)nc(C)[nH]c2=O)c1 (configuration not stated)

[12.8, 31.8]

Provide the reported INHIBITION of each entry below, same order.
1. O=C(Nc1nc2c(s1)CN(S(=O)(=O)C1CC1)CC2)c1ccccn1
2. CN(Cc1cnn(C)c1)C(=O)NCCc1ccc2c(c1)OCCO2
3. COc1ccccc1-c1cc(C(=O)N2CCCC2)c2cnn(C)c2n1
4. Cc1cc(NC(=O)C2CN(Cc3ccccc3)CCO2)ccn1 (configuration not stated)
5. CCC(C)CS(=O)(=O)NC(=O)C1CCC1 (configuration not stated)
6. CN(C)c1ccc(NC(=O)C2CN(Cc3ccccc3)CCO2)cn1 (configuration not stated)
7. O=C(NCCNc1ncccn1)C1CCN(C(=O)N2CCCC2)CC1

1. 39.3
2. -2.862
3. 44.1
4. 96.2
5. 62.3
6. 52.6
7. -33.9

Provide the reported INHIBITION of each entry below, same order.
1. Cc1cc(F)ccc1NC(=O)NCC(C)N1CCOCC1 (configuration not stated)
2. COCc1nc(N(C)C)ncc1C(=O)Nc1ccc(Cl)cc1
3. Cc1cc(C)c(CNC(=O)N(C)Cc2ccc3c(c2)OCO3)c(=O)[nH]1
4. CC(C)(C)n1cc(NC(=O)C2CN(Cc3ccccc3)CCO2)cn1 (configuration not stated)

1. 39
2. -18.8
3. 51.1
4. -43.3
